target: human ROCK1 catalytic domain (Homo sapiens, UniProt Q13464); construct: GST; purchased Carna BioSciences 01-109; experiment: fluorescence coupling (TR-FRET) enzymatic assay, ROCK1; type: biochemical; conditions: 4 nM enzyme, 4 μM ATP, 50 nM Ulight-CREBTide, one hour room temperature; read-out: ROCK1 IC50
Sequence (Q13464 1-477): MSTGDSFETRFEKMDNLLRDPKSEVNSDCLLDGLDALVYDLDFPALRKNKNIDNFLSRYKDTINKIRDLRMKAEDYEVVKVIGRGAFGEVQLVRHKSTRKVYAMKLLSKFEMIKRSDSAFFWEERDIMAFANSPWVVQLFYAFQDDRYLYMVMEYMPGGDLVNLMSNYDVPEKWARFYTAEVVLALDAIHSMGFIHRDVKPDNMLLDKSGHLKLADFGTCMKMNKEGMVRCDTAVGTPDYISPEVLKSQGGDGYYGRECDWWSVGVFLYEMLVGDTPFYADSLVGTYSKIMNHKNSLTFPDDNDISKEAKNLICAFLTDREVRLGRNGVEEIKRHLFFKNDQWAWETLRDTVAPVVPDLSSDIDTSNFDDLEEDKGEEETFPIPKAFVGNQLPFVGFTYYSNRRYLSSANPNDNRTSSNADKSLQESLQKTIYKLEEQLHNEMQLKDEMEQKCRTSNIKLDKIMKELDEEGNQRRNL
readout: IC50

Would you please look over these solved cases?
{"molecule": "CC(C)c1cccc2c1CCN2S(=O)(=O)c1cccc2c(=O)[nH]ccc12 [Example 14]", "readout": "IC50", "observed measurement": "> 10000 nM"}
{"molecule": "N#Cc1cc(C2CC2)c2c(c1)N(S(=O)(=O)c1cccc3c(=O)[nH]ccc13)CC2 [Example 17]", "readout": "IC50", "observed measurement": "100 to 1000 nM"}
{"molecule": "CCNc1cc(C#N)cc2c1CCN2S(=O)(=O)c1cccc2c(=O)[nH]cc(Cl)c12 [Example 44]", "readout": "IC50", "observed measurement": "1000 to 10000 nM"}

Would you kindly look at the next entry?
Exam item: Entry Cc1c[nH]c(=O)c2cccc(S(=O)(=O)N3CCc4c(N)cc(C#N)cc43)c12 [Example 33] : reported IC50 = ?
Marked response: < 100 nM

====

pIC50: −log10 of the molar value.
In what follows, each item is paired with its pIC50 for cGMP-dependent protein kinase 1 (PKG or PRKG1) (Homo sapiens, UniProt Q13976).

{"query smiles": "N#Cc1ccc2c(c1)N(S(=O)(=O)c1cccc3c(=O)[nH]cc(Cl)c13)CC2", "target or test system": "cGMP-dependent protein kinase 1 (PKG or PRKG1) (Homo sapiens, UniProt Q13976)", "pIC50": "< 5.00"}
{"query smiles": "Cc1cnc(O)c2cccc(S(=O)(=O)N3CCc4ccc(Cl)cc43)c12", "target or test system": "cGMP-dependent protein kinase 1 (PKG or PRKG1) (Homo sapiens, UniProt Q13976)", "pIC50": "< 5.00"}
{"query smiles": "O=c1[nH]ccc2c(S(=O)(=O)N3CCc4c(Cl)cc(Cl)cc43)cccc12", "target or test system": "cGMP-dependent protein kinase 1 (PKG or PRKG1) (Homo sapiens, UniProt Q13976)", "pIC50": "< 5.00"}
{"query smiles": "CNc1cc(C#N)cc2c1CCN2S(=O)(=O)c1cccc2c(=O)[nH]cc(Cl)c12", "target or test system": "cGMP-dependent protein kinase 1 (PKG or PRKG1) (Homo sapiens, UniProt Q13976)", "pIC50": "< 5.00"}
{"query smiles": "O=c1[nH]ccc2c(S(=O)(=O)N3CCc4ccc(F)cc43)cccc12", "target or test system": "cGMP-dependent protein kinase 1 (PKG or PRKG1) (Homo sapiens, UniProt Q13976)", "pIC50": "< 5.00"}

Would you kindly look at the next entry?
Exam item: Query for cGMP-dependent protein kinase 1 (PKG or PRKG1) (Homo sapiens, UniProt Q13976): what pIC50 does the record show for "CC(=O)Nc1cc(C#N)cc2c1CCN2S(=O)(=O)c1cccc2c(=O)[nH]cc(C)c12" ?
Marked response: 5.00 to 6.00
